target: Cytochrome P450 1A2 (Homo sapiens); experiment: Cytochrome panel assay with activity outcomes; settings: recombinant CYP, pro-luciferin dealkylation, luminescence, p450-cyp1a2; series mostly up to 57.1 µM
About 5,700 (36%) of roughly 16,000 compounds were called active. Roughly 24% stayed inconclusive and do not appear here. The call rests on the fitted dose curve; in most records, active means well fitted curve in the direction sought with a large enough effect; inconclusive means small, poorly fitted or top-dose-only effect, or effect the other way; inactive means no such curve, though single readings can be large or run the other way. The list shows a part of the results.
Answer with one of the outcomes given here: Yes = active, No = inactive

// return assay outcome for Cc1ccc(-c2ncccc2OC(=O)C23CC4CC(CC(C4)C2)C3)cc1
Yes

---

Target: Cytochrome P450 1A2 (Homo sapiens) (UniProt P05177)
Sequence (P05177 whole entry, looked up): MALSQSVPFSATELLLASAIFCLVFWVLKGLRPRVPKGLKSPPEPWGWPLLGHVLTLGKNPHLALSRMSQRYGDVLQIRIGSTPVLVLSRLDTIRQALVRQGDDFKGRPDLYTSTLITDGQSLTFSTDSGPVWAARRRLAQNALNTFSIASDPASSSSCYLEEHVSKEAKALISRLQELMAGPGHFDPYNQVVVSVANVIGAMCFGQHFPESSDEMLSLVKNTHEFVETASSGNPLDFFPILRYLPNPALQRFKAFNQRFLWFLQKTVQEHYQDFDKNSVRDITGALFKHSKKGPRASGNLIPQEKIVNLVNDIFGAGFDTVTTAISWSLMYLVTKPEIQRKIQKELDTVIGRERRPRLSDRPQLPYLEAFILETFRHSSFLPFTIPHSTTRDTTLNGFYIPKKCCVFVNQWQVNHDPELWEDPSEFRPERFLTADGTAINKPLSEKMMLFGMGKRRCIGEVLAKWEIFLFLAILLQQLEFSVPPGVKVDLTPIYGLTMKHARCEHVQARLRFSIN
Experiment: Cytochrome panel assay with activity outcomes
Details: recombinant CYP, pro-luciferin dealkylation, luminescence, p450-cyp1a2; series mostly up to 57.1 µM
Method: The P450 gene superfamily is involved in the metabolism and clearance of xenobiotics. This assay used various human CYP P450 isozymes to measure the dealkylation of various pro-luciferin substrates to luciferin. The luciferin is then measured by luminescence after the addition of a luciferase detection reagent. […] Inhibitors and some substrates limit the production of luciferin, and decrease measured luminescence. […] 8, Detection, 1 sec, ViewLux luminescent read […]
About 5,700 (36%) of roughly 16,000 compounds were called active. Not shown: some 24% with an inconclusive outcome. The list shows a part of the results.
Experimental Readout: AC50

Worked cases, answers included:
{"columns": ["Cpd Smiles", "Obs Value"],
 "data": [
  ["COc1cc(CNn2nnnc2N)ccc1OCc1c(Cl)cccc1Cl", "7.08 µM (active)"],
  ["COc1cccc(Sc2cc(N3CCOCC3)nc(-c3ccccc3)n2)c1", "2.51 µM (active)"],
  ["C[N+]1(C)C[C@@H](O)C[C@@H]1C(=O)[O-]", "inactive"],
  ["CC(C)(C)NS(=O)(=O)c1ccc(NS(=O)(=O)c2ccc(F)cc2)cc1", "inactive"]
]}

# ---- query molecule ----
Record request: AC50 value, item O=C(c1cnccn1)N1CCC2(CC1)CN(c1ccccn1)C2
inactive

Origin of the recorded values: PubChem BioAssay AID1851
